Data credit: patent US9732075B2

Target: human orexin-2 receptor (Homo sapiens (Human), UniProt O43614)
Sequence (O43614 whole entry): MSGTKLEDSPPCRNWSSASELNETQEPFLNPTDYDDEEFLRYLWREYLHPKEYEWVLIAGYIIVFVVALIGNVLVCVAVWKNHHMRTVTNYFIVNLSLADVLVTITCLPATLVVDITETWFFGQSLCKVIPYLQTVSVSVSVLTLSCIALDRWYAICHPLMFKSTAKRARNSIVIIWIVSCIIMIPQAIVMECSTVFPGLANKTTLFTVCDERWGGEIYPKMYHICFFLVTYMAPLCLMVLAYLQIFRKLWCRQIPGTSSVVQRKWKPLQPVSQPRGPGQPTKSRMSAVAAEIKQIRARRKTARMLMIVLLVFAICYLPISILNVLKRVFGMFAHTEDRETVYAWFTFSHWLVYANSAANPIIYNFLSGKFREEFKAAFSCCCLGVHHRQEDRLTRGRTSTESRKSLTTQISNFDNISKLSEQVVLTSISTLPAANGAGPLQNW
Test: In vitro assay: intracellular calcium measurements (FLIPR), antagonistic activity
Format: cell-based
Conditions: CHO cells expressing human orexin-2 receptor, orexin-A agonist, geometric mean, read-out: IC50 Ox2
Please note: IC50 exactly at 70 nM is False. Only values below 70 nM get True.

Prompt: Please let me know if Cc1cc(C(=O)N2CCC[C@@]2(C)c2nc3cc(C)c(C)cc3[nH]2)c(-n2nccn2)cc1C shows IC50 below 70 nM.
Response: True

Prompt: IC50 under 70 nM? Item: Cc1ccc(-n2nccn2)c(C(=O)N2CCC[C@@]2(C)c2nc3c(C)c(C)c(Br)cc3[nH]2)c1
Response: True

Prompt: Problem: For the molecule Cc1ccc(-c2cccc(F)c2)c(C(=O)N2CCC[C@@]2(C)c2nc3cc(C)c(C)cc3[nH]2)c1 , is IC50 under 70 nM?
Response: True
